For each entry below, report its pEC50 value.
measurementTarget: STING (Canis lupus familiaris)
Sequence (A0A8I3MH52 1-374): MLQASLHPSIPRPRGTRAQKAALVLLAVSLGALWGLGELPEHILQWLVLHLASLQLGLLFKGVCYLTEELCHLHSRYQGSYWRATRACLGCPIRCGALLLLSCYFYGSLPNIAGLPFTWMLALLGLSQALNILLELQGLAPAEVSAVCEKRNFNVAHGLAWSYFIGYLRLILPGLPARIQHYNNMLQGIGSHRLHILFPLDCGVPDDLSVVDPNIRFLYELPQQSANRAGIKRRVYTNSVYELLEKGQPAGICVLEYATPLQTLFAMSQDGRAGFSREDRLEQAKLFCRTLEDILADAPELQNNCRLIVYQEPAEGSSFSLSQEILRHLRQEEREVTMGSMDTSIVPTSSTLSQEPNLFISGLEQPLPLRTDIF
experimentalProtocol: Dog whole blood (dWB) assay, IFNb secretion by ELISA
conditionParameters: canine Interferon-beta (IFNb) ELISA, 4 h incubation at 37° C.
Lab note — pEC50 values are minus log10 of concentrations in M.

Report pEC50, nothing else, for this compound: `Cc1cccc2c(-c3ccc(F)c4nn(C)c(F)c34)nn(-c3ccc(N4CC[C@@H](CC(=O)O)C4)nc3)c12`
6.58

Report pEC50, nothing else, for this compound: Cc1cccc2c(-c3c(F)ccc4nn(C)cc34)nn(-c3ccc(N4CC5CCC4CC5C(=O)O)nc3)c12 (single isomer, unassigned) [Example 28-3]
6.65

Report pEC50, nothing else, for this compound: `Cc1cccc2c(-c3cccc4nn(C)c(F)c34)nn(-c3ccc(N4CCN(C=O)CC4)nc3)c12`
6.72

Report pEC50, nothing else, for this compound: `Cc1cccc2c(-c3c(F)cc(F)c4nn(C)cc34)nn(-c3ccc(N4C[C@@H]5[C@H](C4)[C@H]5C(=O)O)nc3)c12`
6.60

====

Test system: dog STING (dSTING)
experimentalProtocol: Dog differential scanning fluorimetry (DSF) assay, thermal shift of dog STING protein
Format: binding
conditionParameters: DSF (dDSF); 100 μM compound, 3 μM dog STING protein; Tm with ligand minus Tm of protein alone
For each entry below, report its Delta TM value.
# output: bare number, implied unit °C

Report Delta TM, nothing else, for this compound: `Cc1cc(F)cc2c(-c3c(F)cc(F)c4nn(C)cc34)nn(-c3ccc(N4CCC(C(=O)O)CC4)nc3)c12`
37.0

Report Delta TM, nothing else, for this compound: Cc1cccc2c(-c3c(F)cc(F)c4nn(C)cc34)nn(-c3ccc(N4CC5CCC4CC5C(=O)O)nc3)c12 (single isomer, unassigned) [Example 48-4]
36.1

Report Delta TM, nothing else, for this compound: CC(=O)N1CCN(c2ccc(-n3nc(-c4cccc5nn(C)c(F)c45)c4ccc(F)c(C)c43)cn2)CC1 [Example 61]
30.8

Report Delta TM, nothing else, for this compound: `Cc1cccc2c(-c3cc(F)cc4nn(C)cc34)nn(-c3ccc(N4CC[C@H](CC(=O)O)C4)nc3)c12`
24.0

Report Delta TM, nothing else, for this compound: `CC(=O)N1C[C@H]2C[C@@H]1CN2c1ccc(-n2nc(-c3cccc4nn(C)c(F)c34)c3cccc(C)c32)cn1`
30.4

Report Delta TM, nothing else, for this compound: `Cc1cc(F)cc2c(-c3c(F)ccc4nn(C)cc34)nn(-c3ccc(N4C[C@@H]5[C@H](C4)[C@H]5C(=O)O)nc3)c12`
38.0

Report Delta TM, nothing else, for this compound: `CC(=O)N1C[C@H]2C[C@@H]1CN2c1ccc(-n2nc(-c3cc(F)cc4nn(C)cc34)c3cccc(C)c32)cn1`
15.8

Report Delta TM, nothing else, for this compound: `CC(=O)N1CCN(c2ccc(-n3nc(-c4cccc5nn(C)c(F)c45)c4cc(F)cc(C)c43)cn2)CC1`
22.0

Report Delta TM, nothing else, for this compound: `CC(=O)N1C[C@@H]2C[C@H]1CN2c1ccc(-n2nc(-c3c(F)ccc4nn(C)cc34)c3cccc(C)c32)cn1`
30.8

Report Delta TM, nothing else, for this compound: CC(=O)N1CC2CCC1CN2c1ccc(-n2nc(-c3cccc4nn(C)c(F)c34)c3cccc(C)c32)cn1 (stereo not shown)
29.6

Report Delta TM, nothing else, for this compound: `Cc1cccc2c(-c3c(F)cc(F)c4nn(C)cc34)nn(-c3ccc(N4CC[C@@H](CC(=O)O)C4)nc3)c12`
33.0

Report Delta TM, nothing else, for this compound: `Cc1cccc2c(-c3c(Cl)ccc4nn(C)cc34)nn(-c3ccc(N4C[C@@H]5[C@H](C4)[C@H]5C(=O)O)nc3)c12`
27.4

Report Delta TM, nothing else, for this compound: Cc1cccc2c(-c3c(F)cc(F)c4nn(C)cc34)nn(-c3ccc(N4CC5CCC4CC5C(=O)O)nc3)c12 (single isomer, unassigned) [Example 48-2]
24.6
